Assign TGI to each entry below.
Tested on: NCI/ADR-RES ovarian
Assay Summary: NCI tumour cell line growth inhibition, 48 h

Example entries and their recorded answers appear below.
[[record]]
compound = "Brc1cccc[n+]1-c1ccc2cc(-[n+]3ccccc3Br)ccc2c1"
parameter_measured = "TGI"
val = "> 100 µM"

[[record]]
compound = "O=C1c2ccccc2-c2c1c1ccccc1c(=O)n2-c1ccccc1"
parameter_measured = "TGI"
val = "40.8 µM"

[[record]]
compound = "CC(=O)OCC1OC(N2C(S)=C(C#N)C(c3ccco3)C(C(C)=O)=C2c2ccccc2)C(OC(C)=O)C(OC(C)=O)C1OC(C)=O (stereo not given)"
parameter_measured = "TGI"
val = "> 100 µM"

[[record]]
compound = "C#CCCCC(=O)N(C(=O)CS(=O)CC)c1ccccc1 (stereo not given)"
parameter_measured = "TGI"
val = "> 100 µM"

[[record]]
compound = "Cc1sc2nc3n(c(=O)c2c1C)N=C(c1ccc([N+](=O)[O-])cc1)CS3"
parameter_measured = "TGI"
val = "> 100 µM"


// each listed compound needs a value for TGI
1. CC1(C)c2ccccc2C(O)C12CCC(=O)CC2 (stereo not given)
2. CCOC(=S)SCN1C(=O)c2ccccc2S1(=O)=O
3. CC1=CC(=O)/C(=C/n2c(=S)[nH]c3ccccc32)C(=O)O1
4. COc1cc([C@@H]2c3cc4c(cc3C(OC3O[C@@H]5COC(C)O[C@H]5[C@H](O)[C@H]3O)C3COC(=O)[C@@H]32)OCO4)cc(OC)c1O (stereo not given in full)
5. CSC1=C(C(=O)Nc2ccccc2)C(N)=NC1=O

["> 100 µM", "50.8 µM", "> 100 µM", "> 50 µM", "> 100 µM"]
